Values from paper PMC6121621

# TEST TARGET: integrin αIIbβ3 (Homo sapiens, UniProt P05106+P08514)
# Construct: Purified human integrin αIIbβ3; with integrin β3 (ITGB3, P05106)
# Sequence (P08514 32-887): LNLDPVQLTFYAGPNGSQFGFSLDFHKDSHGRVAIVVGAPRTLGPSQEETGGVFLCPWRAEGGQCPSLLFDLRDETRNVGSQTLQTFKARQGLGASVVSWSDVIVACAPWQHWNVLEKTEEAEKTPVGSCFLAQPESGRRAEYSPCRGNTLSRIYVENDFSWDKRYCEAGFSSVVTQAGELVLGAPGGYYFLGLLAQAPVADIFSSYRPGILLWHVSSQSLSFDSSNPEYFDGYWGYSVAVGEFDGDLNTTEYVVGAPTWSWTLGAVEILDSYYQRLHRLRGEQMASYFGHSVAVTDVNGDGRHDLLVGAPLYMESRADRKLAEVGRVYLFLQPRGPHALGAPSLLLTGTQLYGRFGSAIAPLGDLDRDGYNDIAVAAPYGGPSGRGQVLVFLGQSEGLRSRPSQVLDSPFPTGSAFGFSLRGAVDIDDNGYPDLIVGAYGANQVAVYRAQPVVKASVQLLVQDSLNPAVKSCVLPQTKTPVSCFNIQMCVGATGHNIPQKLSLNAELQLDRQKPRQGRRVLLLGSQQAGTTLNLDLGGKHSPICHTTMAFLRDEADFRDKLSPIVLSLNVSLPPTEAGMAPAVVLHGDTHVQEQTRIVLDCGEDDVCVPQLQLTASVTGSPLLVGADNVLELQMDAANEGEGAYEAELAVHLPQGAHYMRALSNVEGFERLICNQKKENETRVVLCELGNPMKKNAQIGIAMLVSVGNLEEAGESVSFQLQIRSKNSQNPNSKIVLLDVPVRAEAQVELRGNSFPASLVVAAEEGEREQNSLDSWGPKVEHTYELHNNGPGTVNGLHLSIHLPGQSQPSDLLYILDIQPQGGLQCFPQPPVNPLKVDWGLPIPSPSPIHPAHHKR
# Sequence (P08514 891-1039): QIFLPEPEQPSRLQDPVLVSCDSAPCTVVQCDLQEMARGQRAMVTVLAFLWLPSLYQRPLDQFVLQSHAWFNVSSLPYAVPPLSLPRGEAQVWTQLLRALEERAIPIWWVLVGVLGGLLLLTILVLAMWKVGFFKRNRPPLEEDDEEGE
# Sequence (P05106 27-788): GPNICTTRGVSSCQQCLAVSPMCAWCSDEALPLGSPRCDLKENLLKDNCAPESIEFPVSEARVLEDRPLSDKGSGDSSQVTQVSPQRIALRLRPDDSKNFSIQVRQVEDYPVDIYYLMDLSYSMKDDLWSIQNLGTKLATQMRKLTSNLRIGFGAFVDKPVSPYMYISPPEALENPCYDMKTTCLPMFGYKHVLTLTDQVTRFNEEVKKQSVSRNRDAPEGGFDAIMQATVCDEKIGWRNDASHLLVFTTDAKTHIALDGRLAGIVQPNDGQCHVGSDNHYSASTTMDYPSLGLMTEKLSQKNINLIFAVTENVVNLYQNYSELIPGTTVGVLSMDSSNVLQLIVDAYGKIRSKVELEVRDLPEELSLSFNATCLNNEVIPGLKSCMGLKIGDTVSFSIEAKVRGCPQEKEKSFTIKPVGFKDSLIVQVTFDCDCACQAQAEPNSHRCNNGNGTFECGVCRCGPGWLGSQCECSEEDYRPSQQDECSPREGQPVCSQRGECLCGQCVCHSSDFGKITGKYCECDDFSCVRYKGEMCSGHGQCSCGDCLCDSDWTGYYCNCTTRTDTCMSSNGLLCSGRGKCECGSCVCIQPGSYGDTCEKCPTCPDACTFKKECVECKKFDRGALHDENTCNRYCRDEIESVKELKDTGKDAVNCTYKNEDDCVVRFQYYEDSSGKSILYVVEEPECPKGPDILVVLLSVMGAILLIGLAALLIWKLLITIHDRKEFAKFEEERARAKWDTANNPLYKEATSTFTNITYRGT
# TEST SUMMARY: ELISA: inhibition of purified human αIIbβ[…] binding to immobilized fibrinogen
MEASURED QUANTITY: pIC50
The scale used: pIC50 is minus the common logarithm of the concentration in molar units.

Form field: reported pIC50 of COc1ccc(S(=O)(=O)NC(Cc2ccc3cc(OCCN4CCNCC4)ccc3c2)C(=O)O)cc1 (stereo not shown) 6.43
